assay: Particle size and polydispersity index of nanoparticle compositions (Zetasizer Nano ZS); format: physicochemical; conditions: Table 1E; compositions for subcutaneous administration
measured-metric: PDI

// field: PDI; key: "CCCCCCCCCOC(=O)CCCCCCCN(CCCCCCCC(=O)OC(CCCCCCCC)CCCCCCCC)CCCNS(C)(=O)=O" ; value = 0.10

// field: PDI; key: "CCCCCCCCCOC(=O)CCCCCCCN(CCO)CCCCCCCCCC(=O)OC(CCCCCCCC)CCCCCCCC" ; value = 0.13

// field: PDI; key: "CCCCCCCCCOC(=O)CCCCCCCN(CCCCCCCC(=O)OC(CCCCCCCC)CCCCCCCC)CCCNC(=S)N(C)C" ; value = 0.16

// field: PDI; key: CCCCCCCCC(CCCCCCCC)OC(=O)CCCCCCCN(CCO)CCCCCC(=O)OC(CCCCCCCC)C1CC1 (stereo not shown) ; value = 0.13

// field: PDI; key: "CCCCCCCCCOC(=O)CCCCCCCN(CCCCCCCC(=O)OC(CCCCCCCC)CCCCCCCC)CCCN/C(=N/C#N)N(C)C" ; value = 0.08

// field: PDI; key: CCCCCCCCCOC(=O)CCCCCCCN(CCCCCCCC(=O)OC(CCCCCCCC)CCCCCCCC)CC(O)CO (stereo not shown) ; value = 0.09

// field: PDI; key: CCCCC/C=C\C/C=C\CCCCCCCCC(CCCCCCCC/C=C\C/C=C\CCCCC)OC(=O)CCCN(C)C [MC3, DLin-MC3-DMA, reference compound] ; value = 0.10

----------
tested on: IL-6, IP-10; test: Cytokine induction in mice upon intravenous administration; type: in vivo; parameters: unit not given here; details: intravenous, 0.5 mpk, 6 hours
Assign Cytokine induction IP-10 to each entry below.
Respond numerically, and do not add a unit to the figure.

// field: Cytokine induction IP-10; key: "CCCCCCCCCOC(=O)CCCCCCCN(CCO)CCCCCCCC(=O)N(CCCCCCCC)CCCCCCCC" ; value = 4220.55

// field: Cytokine induction IP-10; key: "CCCCCCCCCCCOC(=O)CCCCCN(CCO)CCCCCCCC(=O)OC(CCCCCCCC)CCCCCCCC" ; value = 1194.13

// field: Cytokine induction IP-10; key: "CCCCCCCCCOC(=O)CCCCCCCN(CCCCCCCC(=O)OC(CCCCCCCC)CCCCCCCC)CCOC" ; value = 184.30

// field: Cytokine induction IP-10; key: "CCCCCCCCCCCCN(CCO)CCCCCCCCCCCC(=O)OC" ; value = 234.35

// field: Cytokine induction IP-10; key: "CCCCCCCCCN(CCO)CCCCCCCC(=O)OC(CCCCCCCC)CCCCCCCC" ; value = 2052.87

// field: Cytokine induction IP-10; key: "CCCCCCCCCOC(=O)CCCCCCCN(CCCCCCCC(=O)OC(CCCCCCCC)CCCCCCCC)CCOCCN(C)C" ; value = 156.41

----------
Assign ALT to each entry below.
assay: ALT and AST after intravenous administration to rat (Table 19A); format: in vivo; conditions: 0.2 mpk
Write your answer as a measured quantity: the number, then the unit.

// field: ALT; key: CCCCC/C=C\C/C=C\CCCCCCCCC(CCCCCCCC/C=C\C/C=C\CCCCC)OC(=O)CCCN(C)C [MC3, DLin-MC3-DMA, reference compound] ; value = 63.6 international units

// field: ALT; key: CCCCCCCCC(CCC)OC(=O)CCCCCCCN(CCO)CCCCCCCC(=O)OC(CCCCCCCC)CCCCCCCC (stereo not shown) ; value = 59.2 international units

// field: ALT; key: CCCCCCCCC(CC)OC(=O)CCCCCCCN(CCO)CCCCCCCC(=O)OC(CCCCCCCC)CCCCCCCC (stereo not shown) ; value = 54.0 international units

// field: ALT; key: CCCCCCCCC(C)OC(=O)CCCCCCCN(CCO)CCCCCCCC(=O)OC(CCCCCCCC)CCCCCCCC (stereo not shown) ; value = 59.6 international units

The measured values listed here are drawn from patent US12263248B2.
